pIC50: −log10 of the molar value.
Target or system human mPGES-1 (Homo sapiens, UniProt O14684); metric pIC50; compiled from varied reports.
Assay Readout: pIC50

Given Smiles | Assay Readout | Result Value
CC(C)(C)C#Cc1ccc(C(=O)NS(=O)(=O)c2ccccc2S(N)(=O)=O)cc1 | pIC50 | 7.55
COc1ccccc1/C=C/S(=O)(=O)Nc1ccccc1S(N)(=O)=O | pIC50 | 6.37
C/C(=C\S(=O)(=O)Nc1ccccc1S(N)(=O)=O)c1ccc(Cl)cc1 | pIC50 | 6.15
Cc1c(CNS(=O)(=O)C(C)(C)C)ccc(Cl)c1-c1nc(O)nc(-c2ccc(C(F)(F)F)cc2)n1 | pIC50 | 7.80
NS(=O)(=O)c1ccccc1NS(=O)(=O)/C=C/c1ccc(C2=CCCC2)cc1 | pIC50 | 7.01
Cc1cccc(C)c1-c1nc(O)nc(-c2ccc(OCC3CCCCCC3)cc2)n1 | pIC50 | 7.60
CNC(=O)c1ccc(Cl)c(-c2nc(O)nc(-c3ccc(OCC4CC4)cc3)n2)c1 | pIC50 | 4.98
